- ASSAYED_TARGET: Vanilloid receptor (Rattus norvegicus, UniProt Q9ERZ8+Q9WUD2+O35433)
- EXPERIMENTAL_DETAILS: Calcium +2 uptake into Dorsal Root Ganglion(DRG) neurons
- Type: functional, tissue-based
Measured EC50 by item
MEASURED_METRIC: EC50 (nM)

- COc1cc(CC(=O)OCC2=C[C@H]3[C@@H]4C(C)(C)[C@]4(OC(C)=O)C(OC(C)=O)[C@@H](C)C3(O)[C@@H]3C=C(C)C(=O)[C@@]3(OC)C2)ccc1O (stereo partly specified): 8510
- C=C(C)[C@@]12C[C@@H](C)C34OC(Cc5ccccc5)(OC1[C@@H]3C=C(COC(=O)Cc1ccc(OC)c(N=[N+]=[N-])c1)C[C@]1(O)C(=O)C(C)=C[C@@H]41)O2 (stereo partly specified): 10.64
- C=C(C)C12C[C@@H](C)C34OC(Cc5ccccc5)(OC1[C@@H]3C=C(COC(=O)Cc1ccc(O)c(OC)c1)C[C@]1(OC)C(=O)C(C)=C[C@@H]41)O2 (single isomer, unassigned): 5.3

---

- ASSAYED_TARGET: Transient receptor potential cation channel subfamily V member 1 (Rattus norvegicus, UniProt O35433)
- Sequence (O35433 whole entry): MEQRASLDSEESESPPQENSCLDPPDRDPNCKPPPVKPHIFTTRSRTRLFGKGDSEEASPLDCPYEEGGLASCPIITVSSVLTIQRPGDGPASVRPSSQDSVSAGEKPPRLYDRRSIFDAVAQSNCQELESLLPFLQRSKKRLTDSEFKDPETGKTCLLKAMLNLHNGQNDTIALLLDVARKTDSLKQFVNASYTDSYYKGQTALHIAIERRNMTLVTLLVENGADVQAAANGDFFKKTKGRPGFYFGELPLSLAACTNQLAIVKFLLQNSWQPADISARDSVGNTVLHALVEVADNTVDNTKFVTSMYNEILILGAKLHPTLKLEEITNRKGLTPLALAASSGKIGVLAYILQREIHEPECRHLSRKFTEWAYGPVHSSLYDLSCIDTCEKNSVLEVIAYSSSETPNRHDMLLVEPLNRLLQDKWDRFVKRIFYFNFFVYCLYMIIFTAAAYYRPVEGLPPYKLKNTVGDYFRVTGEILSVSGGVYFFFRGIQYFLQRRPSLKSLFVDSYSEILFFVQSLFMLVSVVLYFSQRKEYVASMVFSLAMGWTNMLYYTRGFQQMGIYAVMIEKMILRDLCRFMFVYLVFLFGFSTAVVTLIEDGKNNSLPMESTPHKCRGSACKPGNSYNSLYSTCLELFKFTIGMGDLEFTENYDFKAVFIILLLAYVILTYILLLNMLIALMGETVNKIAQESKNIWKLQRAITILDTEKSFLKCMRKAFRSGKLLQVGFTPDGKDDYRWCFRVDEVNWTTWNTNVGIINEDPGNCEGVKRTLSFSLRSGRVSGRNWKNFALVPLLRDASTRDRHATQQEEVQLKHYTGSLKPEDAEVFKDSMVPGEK
MEASURED_METRIC: Ki (nM)

- C=C(C)[C@]12C[C@@H](C)[C@@]34O[C@](Cc5ccccc5)(O[C@@H]1[C@@H]3C=C(COC(=O)Cc1ccc(O)c(OC)c1)C[C@]1(O)C(=O)C(C)=C[C@@H]41)O2 [RESINIFERATOXIN]: 0.12
- C=C(C)C12C[C@@H](C)C34OC(Cc5ccccc5)(OC1[C@@H]3C=C(COC(=O)Cc1ccc(OC)c(OC)c1)C[C@]1(O)C(=O)C(C)=CC41)O2 (single isomer, unassigned): 1
- C=C(C)C12C[C@@H](C)C34OC(Cc5ccccc5)(OC1[C@@H]3C=C(COC(=O)Cc1ccccc1)C[C@]1(O)C(=O)C(C)=CC41)O2 (single isomer, unassigned): 8.3
- C=C(C)[C@@]12C[C@@H](C)C34OC(c5ccccc5)(OC1[C@@H]3C=C(COC(=O)Cc1ccc(O)c(OC)c1)C[C@]1(O)C(=O)C(C)=C[C@@H]41)O2 (stereo partly drawn): 0.17
- C=C(C)[C@@]12C[C@@H](C)C34OC(C)(OC1[C@@H]3C=C(COC(=O)Cc1ccc(O)c(OC)c1)C[C@]1(O)C(=O)C(C)=C[C@@H]41)O2 (stereo partly drawn): 3.2
- C=C(C)C12C[C@@H](C)C34OC(Cc5ccccc5)(OC1[C@@H]3C=C(COC(=O)Cc1ccc(OCCN)c(OC)c1)C[C@]1(O)C(=O)C(C)=CC41)O2 (single isomer, unassigned): 4.3
- C=C(C)[C@@]12C[C@@H](C)C34OC(Cc5ccccc5)(OC1[C@@H]3C=C(CNC(=O)Cc1ccc(O)c(OC)c1)C[C@]1(O)C(=O)C(C)=C[C@@H]41)O2 (stereo partly drawn): 10.6

---

Measured EC50 by item
- ASSAYED_TARGET: Vanilloid receptor (Rattus norvegicus, UniProt Q9ERZ8+Q9WUD2+O35433)
- EXPERIMENTAL_DETAILS: Calcium +2 uptake into Dorsal Root Ganglion(DRG) neurons
- Type: functional, tissue-based
MEASURED_METRIC: EC50 (nM)

• COc1cc(CC(=O)OC/C=C/[C@H]2[C@H]3OC4(Cc5ccccc5)O[C@H]3CC[C@H]2O4)ccc1O = 9150
• CCCCCCCCC(=O)NCc1ccc(OCCN)c(OC)c1 = 410
• C=C(C)C12C[C@@H](C)C34OC(Cc5ccccc5)(OC1[C@@H]3C=C(COC(=O)Cc1ccccc1)C[C@]1(O)C(=O)C(C)=CC41)O2 (single isomer, unassigned) = 10.22
• C=C(C)[C@@]12C[C@@H](C)C34OC(Cc5ccccc5)(OC1[C@@H]3C=C(COC(=O)Cc1cccc(OC)c1)C[C@]1(O)C(=O)C(C)=C[C@@H]41)O2 (stereo not given in full) = 7.89

---

- ASSAYED_TARGET: Transient receptor potential cation channel subfamily V member 1 (Rattus norvegicus)
- EXPERIMENTAL_DETAILS: Binding affinity against Vanilloid receptor in dorsal root ganglion (DRG) membranes relative to resinferatoxin (RTX); not tested
- Assay type: tissue-based
Could you please mark condition met for values of Relative affinity below 0.1 and condition not met for values at or above it?

* C=C(C)[C@@]12C[C@@H](C)C34OC(c5ccccc5)(OC1[C@@H]3C=C(COC(=O)Cc1ccc(O)c(OC)c1)C[C@]1(O)C(=O)C(C)=C[C@@H]41)O2 (stereo partly drawn) | condition not met
* C=C(C)C12C[C@@H](C)C34OC(Cc5ccccc5)(OC1[C@@H]3C=C(COC(=O)Cc1ccc(OCCN)c(OC)c1)C[C@]1(O)C(=O)C(C)=CC41)O2 (single isomer, unassigned) | condition met
* C=C(C)[C@@]12C[C@@H](C)C34OC(Cc5ccccc5)(OC1[C@@H]3C=C(CNC(=O)Cc1ccc(O)c(OC)c1)C[C@]1(O)C(=O)C(C)=C[C@@H]41)O2 (stereo partly drawn) | condition met
* C=C(C)[C@@]12C[C@@H](C)C34OC(C)(OC1[C@@H]3C=C(COC(=O)Cc1ccc(O)c(OC)c1)C[C@]1(O)C(=O)C(C)=C[C@@H]41)O2 (stereo partly drawn) | condition met
* C=C(C)C12C[C@@H](C)C34OC(Cc5ccccc5)(OC1[C@@H]3C=C(COC(=O)Cc1ccc(OC)c(OC)c1)C[C@]1(O)C(=O)C(C)=CC41)O2 (single isomer, unassigned) | condition not met
* C=C(C)C12C[C@@H](C)C34OC(Cc5ccccc5)(OC1[C@@H]3C=C(COC(=O)Cc1ccccc1)C[C@]1(O)C(=O)C(C)=CC41)O2 (single isomer, unassigned) | condition met
* C=C(C)C12C[C@@H](C)C34OC(Cc5ccccc5)(OC1[C@@H]3C=C(CO)C[C@]1(O)C(=O)C(C)=CC41)O2 (single isomer, unassigned) | condition met
* C=C(C)[C@]12C[C@@H](C)[C@@]34O[C@](Cc5ccccc5)(O[C@@H]1[C@@H]3C=C(COC(=O)Cc1ccc(O)c(OC)c1)C[C@]1(O)C(=O)C(C)=C[C@@H]41)O2 | condition not met

---

- ASSAYED_TARGET: Vanilloid receptor (Rattus norvegicus, UniProt Q9ERZ8+Q9WUD2+O35433)
- EXPERIMENTAL_DETAILS: Calcium +2 uptake into Dorsal Root Ganglion(DRG) neurons
- Format: functional, tissue-based
MEASURED_METRIC: EC50

* C=C(C)[C@@]12C[C@@H](C)C34OC(Cc5ccccc5)(OC1[C@@H]3C=C(COC(C)=O)C[C@]1(O)C(=O)C(C)=C[C@@H]41)O2 (stereo partly drawn) | > 2000 nM
* CCCCCCCCC(=O)NCc1cccc(OC)c1 | > 100000 nM
* CCCCCCCCC(=O)NCc1ccc(O)c(OC)c1 [NONIVAMIDE] | > 550 nM
